Experiment: NCI Yeast Anticancer Drug Screen. Data for the rad50 strain (AID 155);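 further: 0% = growth of vehicle-only cultures of the same strain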
Details: S. cerevisiae rad50 strain growth inhibition; at 5.0 µM (retest, dose inferred, filed as 0.5)
About 79,000 compounds went through this panel and 15% of them were active in at least one assay; those are over-represented in the sample as a whole. Calls of active or inactive are those of the source. No stated cut-off is given here; in the data, active means growth inhibition above about 70%; inactive means the rest. Where a SMILES comes first, the peptide text is derived from it. [ ]: non-standard residue; d: D form. Phe(4-Cl) = N[CH](Cc1ccc(Cl)cc1)C(=O)O; 3Pal = N[CH](Cc1cccnc1)C(=O)O
Labels: 1.0 (active), 0.0 (inactive)

>  <Molecule>
CCOC(=O)/C=C(\CC(=O)OCC)C(=O)OCC

>  <Class Label>
0.0

$$$$
>  <Molecule>
CC12CC(O)C3C(CCC4CCCCC43C)C1CC/C2=N/O (stereo unspecified)

>  <Class Label>
0.0

$$$$
>  <Molecule>
CC(C)/C(Cl)=N/OC(NC(=O)Nc1ccc(Cl)c(Cl)c1)(C(F)(F)F)C(F)(F)F

>  <Class Label>
0.0

$$$$
>  <Molecule>
COc1cc(OC)cc(C2SCC(=O)N2c2nncs2)c1 (stereo unspecified)

>  <Class Label>
0.0

$$$$
>  <Molecule>
COc1ccccc1Nc1nc(SC)ncc1SC

>  <Class Label>
0.0

$$$$
>  <Molecule>
CCCCc1c2c(nc3c1CC/C(=C\c1ccc([N+](=O)[O-])cc1)C3=O)CCCC2

>  <Class Label>
1.0

$$$$
>  <Molecule>
CCOC(=O)C(NC(C)=O)[CH](c1ccccc1)[Sn]([Cl])([c]1ccccc1)[c]1ccccc1 (stereo unspecified)

>  <Class Label>
0.0

$$$$
>  <Molecule>
CCOc1ccccc1/C=C1\NC(=O)N(/C=C2\C(=O)Oc3ccccc3C2=O)C1=O

>  <Class Label>
0.0

$$$$
>  <Molecule>
CC(=O)NC(Cc1ccc(Cl)cc1)C(=O)NC(Cc1ccc(Cl)cc1)C(=O)NC(Cc1cccnc1)C(=O)NC(CO)C(=O)NC(Cc1ccc(O)cc1)C(=O)NC(CCCN=C(N)N)C(=O)NC(CC(C)C)C(=O)NC(CCCN=C(N)N)C(=O)N1CCCC1C(=O)NC(C)C(=O)O (stereo unspecified) (Ac-[Phe(4-Cl)][Phe(4-Cl)][3Pal]SYRLRPA-OH; configuration not given here)

>  <Class Label>
0.0

$$$$
>  <Molecule>
Nc1nc(N)c(N=O)c(Nc2cccc(Br)c2)n1

>  <Class Label>
0.0

$$$$
>  <Molecule>
CC(C)C(Sc1nc(-c2ccccc2)c(-c2ccccc2)[nH]1)c1n[nH]c(=S)n1-c1ccccc1 (stereo unspecified)

>  <Class Label>
0.0

$$$$
>  <Molecule>
COC(C(=O)C1=C2Oc3c4c(cc(O)c3C(=O)C2C2=C(CCCC2)C1=O)OC(C)(C)C=C4)C(C)CCC=C(C)C (stereo unspecified)

>  <Class Label>
0.0

$$$$
>  <Molecule>
CCCCCCC(O)CCOC(C)=O (stereo unspecified)

>  <Class Label>
0.0

$$$$
>  <Molecule>
CC1C/C(=C\c2ccc(O)c(O)c2)C(=O)/C(=C/c2ccc(O)c(O)c2)C1 (stereo unspecified)

>  <Class Label>
0.0

$$$$
>  <Molecule>
O=c1oc(-c2ccc(Cl)cc2[N+](=O)[O-])nc2ccccc12

>  <Class Label>
0.0

$$$$
>  <Molecule>
CCc1scc(C)[n+]1CC(=O)c1cccc([N+](=O)[O-])c1

>  <Class Label>
0.0

$$$$
>  <Molecule>
CCOC(=O)C(=O)NNc1ccccc1

>  <Class Label>
0.0

$$$$
>  <Molecule>
COc1cc(/C=C2\S/C(=N/Nc3nc(-c4ccc(Br)cc4)cs3)NC2=O)cc(OC)c1OC

>  <Class Label>
0.0

$$$$
>  <Molecule>
CC1(C)OC(=O)C(=NNc2ccccc2[N+](=O)[O-])C(=O)O1

>  <Class Label>
0.0

$$$$
>  <Molecule>
CCn1nc(-c2ccccc2)c2c1N(C)c1ccccc1-n1c(-c3ccccc3)nnc1-2

>  <Class Label>
0.0

$$$$
>  <Molecule>
C[C@]12CC[C@H]3[C@@H](CCC4=CC(=O)CC[C@@]43C)[C@@H]1CC[C@@H]2O[Si](O[C@H]1CC[C@H]2[C@@H]3CCC4=CC(=O)CC[C@]4(C)[C@H]3CC[C@]12C)(O[C@H]1CC[C@H]2[C@@H]3CCC4=CC(=O)CC[C@]4(C)[C@H]3CC[C@]12C)c1ccccc1

>  <Class Label>
0.0

$$$$
